The measured values listed here are drawn from patent US8742110B2.

# TARGET_OF_ASSAY: SSTR5 (Homo sapiens (Human))
# Sequence (P35346 whole entry): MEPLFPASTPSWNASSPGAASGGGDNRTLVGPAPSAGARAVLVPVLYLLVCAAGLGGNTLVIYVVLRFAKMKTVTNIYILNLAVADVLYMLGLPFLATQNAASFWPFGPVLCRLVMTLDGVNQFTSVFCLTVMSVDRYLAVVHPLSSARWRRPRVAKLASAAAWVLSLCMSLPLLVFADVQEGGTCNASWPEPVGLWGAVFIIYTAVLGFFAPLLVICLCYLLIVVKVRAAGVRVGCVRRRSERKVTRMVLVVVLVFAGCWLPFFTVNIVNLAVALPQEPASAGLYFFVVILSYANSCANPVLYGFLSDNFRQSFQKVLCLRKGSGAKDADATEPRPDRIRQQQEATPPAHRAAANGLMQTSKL
# ASSAY_NOTES: SSTR5 binding assay
# TEST_CONTEXT: CHO-K1 membranes expressing cloned human SSTR5
Counter-ions that a name gives are not always drawn.
OBSERVED_PROPERTY: IC50 (nM)

1. CC(C)n1cc(CN2CCC3(CC2)CN(c2ccc(C(=O)O)cc2)C(=O)O3)c2cc(-c3ccc(F)c(F)c3F)ccc21 [Example 6-24, TFA salt]: 0.342
2. CC(C)n1nc(Cc2cc(F)c(F)cc2F)c(CN2CCC3(CC2)CN(c2ccc(C(=O)O)cc2)C(=O)O3)c1Cl [Example 1-45, TFA salt]: 23
3. CC(C)(C)Cn1nc(CN2CCC3(CC2)CN(c2ccc(C(=O)O)cc2)C(=O)O3)c2cc(F)ccc21 [Example 6-10, TFA salt]: 137
4. CC(C)n1cc(CN2CCC3(CC2)CN(c2ccc(C(=O)O)cc2)C(=O)O3)c2cc(Br)ccc21 [Example 6-25, TFA salt]: 0.55
5. O=C(O)c1ccc(N2CC3(CCN(Cc4cn(C5CCCCC5)nc4-c4ccc(F)c(Cl)c4)CC3)OC2=O)cc1 [Example 1-2, TFA salt]: 0.943
6. CCOc1cc(CN2CCC3(CC2)CN(c2cncc(C(=O)O)c2)C(=O)O3)cc(OCC)c1-c1ccc(F)cc1 [Example 3-5, TFA salt]: 2.12
